B1: MFF (parent)
chain: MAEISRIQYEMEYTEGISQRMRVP

- Variants of: B1
- protocol-notes: protein stability index of a GFP-peptide fusion (GPS, HEK-293T) (PSI 1-6); higher = more stable;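 also: lentivirally expressed fusions sorted by FACS into six bins by GFP to DsRed ratio, PSI derived from sequencing read proportions per bin multiplied by bin number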
- test-conditions: c terminus: a fixed tail appended
assay-readout: protein stability index

G16Q    2.29
M21G    3.62
I7R    3.33
E15D    2.64
T14A    2.68
Y9L    2.28
G16E    3.12
Y9P    3.57
I4M    3.56
E10I    1.6
V23R    2.73
S5V    2.02
Q8G    2.9
R6D    3.28
M1F    1.97
S5L    2.17
T14I    1.86
Y13H    3.26
M21I    2.42
E12H    2.26
E3H    2.93
V23L    2.46
